target: CDK2/Cyclin E1 complex (Homo sapiens); assay: CDK2 kinase inhibition assay (Caliper/LabChip EZ Reader); details: CDK2/Cyclin E1 0.5 nM, ATP 2 mM, 35 min at 27° C.
Assay metric: IC50

# input Determine from records and report IC50 for CC1(O)CCN(C(=O)c2ccc3c(-c4nc(NC5CCCNC5)ncc4C(F)(F)F)c[nH]c3c2)C1 (stereo not shown) [Compound 220]
# output ≥ 5 µM

# input Read off the recorded IC50 for CNC(=O)c1ccc2c(-c3nc(NC4CCCNC4)ncc3C(F)(F)F)c[nH]c2c1 (stereo not shown)
# output 0.2 to 5 µM

# input Answer with the recorded IC50 of OCc1cncc(-c2ccc3c(-c4nc(NC5CCCNC5)ncc4C(F)(F)F)c[nH]c3c2)c1 (stereo not shown) only.
# output 0.2 to 5 µM

# input Supply recorded IC50 for O=C(c1ccc2c(-c3nc(NC4CCCNC4)ncc3C(F)(F)F)c[nH]c2c1)N1CCC(O)(C(F)(F)F)C1 (stereo not shown) [Compound 300] here.
# output 0.2 to 5 µM

Attribution: patent US20230000870A1
